# assayNotes: small-molecule microarray binders of probe aEGFR, primary screen, biochemical, biotinylated probe, 635/667 nm fluorescence (AID 1097);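 further: probe is a biotinylated anti-EGFR antibody binding compounds printed on slides; score combines fluorescence near 667 nm and signal to noise of each spot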
# experimentalConditions: higher = more signal
Class Met: composite z-score at least -0.004. Class Not met: composite z-score below -0.004.

Some entries whose results are on file:
| compound | labelValue |
| --- | --- |
| COC(=O)[C@@]1(CCS(=O)(=O)c2ccccc2)N=C(c2ccc(OCCCO)cc2)O[C@H]1c1ccccc1N=[N+]=[N-] | Not met |
| C=C(/C(=C/C[C@H](OC(=O)c1ccncc1)c1ccccc1OCCO)c1cc(C(=O)OC)ccc1OC)C(C)C | Not met |
| COC(=O)Cn1c(C(=O)N(C)C)cc2c1C[C@H]1CN(C(=O)c3ccccc3)[C@@](Cc3ccc(OC)cc3)(C(=O)OC)[C@@H]21 | Not met |

Query compound follows.
Request: Please indicate if the recorded composite z-score for C=CC[C@@]1(C(=O)O)N=C(c2ccc(OCCCO)cc2)O[C@@H]1c1ccccc1CN=[N+]=[N-] meets or exceeds -0.004.
Result: Met

* * *

Reported values of z-score for individual entries
# assayNotes: CREB reporter modulators under forskolin, primary screen, cell-based, PC12, CRE-LacZ reporter, forskolin-stimulated (AID 1146);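 further: PC12 cells with 6xCRE LacZ reporter stimulated by forskolin 10 µM; beta-galactosidase reporter signal reflecting CREB driven transcription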
# experimentalConditions: luminescence, 4.5 h, higher = more signal, called active from +8 up or from −8 down
Answer with a bare number; do not write a unit.

| compound | reportedResult |
| --- | --- |
| COCCOC(=O)N1C(=O)[C@@]2(c3cc(C#CC4=CCCCC4)ccc31)[C@H](c1ccccc1OCCO)N1[C@H](c3ccccc3)[C@H](c3ccccc3)OC(=O)[C@H]1[C@@H]2C(N)=O | -1.6 |
| CC(c1ccccc1)C(O)C1C=CC2C(=O)N(c3ccccc3)C(=O)C2N1Nc1ccc(C#N)cc1 (configuration not stated) | 0.721 |
| CCCC=C(CCC)[C@@H](NC(=O)c1ccccc1)c1ccc(C(=O)OC)cc1 | 0.0425 |
| C=CCC(OC(C)=O)[C@@H]1[C@@H](N(Cc2ccc(-c3cccc(C(F)(F)F)c3)o2)C(=O)c2cccc3ccccc23)c2cc(OCCCO)ccc2N1C(=O)c1ccc2ccccc2n1 (some centres not stated) | 0.0155 |
| COc1ccc([Si](C)(C)[C@H]2[C@H](CCn3cc([C@H](O)c4ccccc4)nn3)O[C@@]3(C(=O)N(C)c4c(Br)cc(C)cc43)[C@@H]2C)cc1 | -1.66 |
| C=CC[C@]1(C(=O)N(C)C)COC(c2ccc(OCCCO)cc2)=N1 | -1.45 |

# ---- query compound ----
Noted for CC[C@H](C)C(=O)O[C@H]1CC[C@]2(C)C3=C(CCC2C1(C)C)[C@]1(C)CC[C@H]([C@H](C)CCCC(C)C)[C@@]1(C)CC3 (some centres not stated) : its z-score reads -1.24

* * *

# testedOn: Follistatin-related protein 3 (Homo sapiens) (UniProt O95633)
# Sequence (O95633 whole entry, looked up): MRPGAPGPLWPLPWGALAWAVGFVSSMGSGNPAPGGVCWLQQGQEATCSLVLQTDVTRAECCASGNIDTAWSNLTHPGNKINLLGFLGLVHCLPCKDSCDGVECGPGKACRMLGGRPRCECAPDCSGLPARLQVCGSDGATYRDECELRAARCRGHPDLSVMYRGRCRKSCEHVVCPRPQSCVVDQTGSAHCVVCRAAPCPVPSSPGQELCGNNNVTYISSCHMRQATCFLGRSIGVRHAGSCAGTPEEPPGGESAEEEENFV
# assayNotes: FSTL3 binders on small-molecule microarrays, primary screen, biochemical, small-molecule microarray, 635 nm fluorescence (AID 1105);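 further: score merges emission near 667 nm and signal to noise per printed spot across three slides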
# experimentalConditions: FSTL3 binding, higher = more signal
outcomeMeasure: composite z-score
Answer with a bare number; do not write a unit.

// known answers, use as guide
| smilesStructure | outcomeMeasure | reportedResult |
| --- | --- | --- |
| C=C(/C(=C/C[C@H](OC(=O)c1ccncc1)c1ccccc1OCCO)c1cc(C(=O)OC)ccc1OC)C(C)C | composite z-score | 1.1 |
| Cc1c(NC(=O)/C(C#N)=C/c2ccc(Cl)cc2)c(=O)n(-c2ccccc2)n1C | composite z-score | 0.371 |
| NCCCC[C@@H]1NC(=O)[C@H]2C[C@@H](C(=O)NCc3ccc(F)cc3)[C@@H](c3cccc(OCCO)c3)N2C1=O | composite z-score | 1.47 |
| CC(C)=CCN(C(=O)C#Cc1ccccc1)[C@H](CO)c1ccccc1 | composite z-score | 0.604 |
| COC(=O)[C@@H]1N=C(c2ccc(OCCCO)cc2)O[C@@H]1c1ccccc1CN=[N+]=[N-] | composite z-score | -0.547 |

Noted for COC(=O)[C@@]1(CCS(=O)(=O)c2ccccc2)N=C(c2ccc(OCCCO)cc2)O[C@H]1c1ccccc1N=[N+]=[N-] : its composite z-score reads 0.969

Noted for C=CC[C@@]1(C(=O)N(C)C)N=C(c2ccc(OCCCO)cc2)O[C@@H]1c1ccccc1 : its composite z-score reads -0.583

Noted for COCCOC(=O)N1C(=O)[C@@]2(c3cc(C#CCCO)ccc31)[C@H](c1ccccc1OCCO)N1[C@H](c3ccccc3)[C@H](c3ccccc3)OC(=O)[C@H]1[C@@H]2C(=O)N1CCc2cc(OC)c(OC)cc2C1 : its composite z-score reads 1.39

Origin of values: PubChem BioAssay
